# credit: patent US20200255503A1

# test-target: T1, Fel d1 (B-A)-mmH (cat (Felis domesticus))
# T1 construct: Expressed in CHO cells; also called rFel d1.mmH; rFel d1-mmH
# T1 sequence (chain, as listed by the source limits assumed): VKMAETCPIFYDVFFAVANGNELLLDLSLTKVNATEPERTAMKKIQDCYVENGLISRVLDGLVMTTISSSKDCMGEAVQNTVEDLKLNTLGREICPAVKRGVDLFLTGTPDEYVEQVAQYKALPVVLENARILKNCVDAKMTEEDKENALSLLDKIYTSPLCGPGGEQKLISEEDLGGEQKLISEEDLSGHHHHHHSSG
# protocol: SPR, mAb captured, Fel d1 (B-A)-mmH injected, 25 C;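 further: rate constants obtained by fitting sensorgrams to a one-to-one binding model, Kd computed as koff over kon, half-life derived from koff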
metric-name: koff

Worked set:
Need koff, item H2M1236N (antibody, mouse IgG2, V domains shown, chimeric, human variable domains with mouse IgG2 Fc (prefix H2M)) VH: QVQLQESGPGLVKPSETLSLTCTVSGGSISNYYWSWIRQPPGKGLEWIGYIYYSGRTNYNPSLKSRVTISVDTSKNQFSLKLRSVTAADTAVYYCARHRITRTADSFDYWGQGTLVTVSS VL: DIQMTQSPSSLSASVGDRVTITCQASQDITNYLNWYQQKPGKAPKLLIYDASNLETGVPSRFSGSGSGTDFTFTISSLQPEDVATFYCHQYGDLPYTFGQGTKLEIK
0.000232 s⁻¹

Give the measured koff of H4H2636B (antibody, human IgG4, V domains shown, human IgG4 Fc (prefix H4H)) VH: EVQLVESGGGLVQPGGSLRLSCAASGFTFSSYAMSWVRQAPGKGLEWVSAISGRGYNADYADSVKGRFTISRDNSKNTLYLQMNSLRAEDTAVYYCAKLEYFDYWGQGTTVTVSS VL: DIQLTQSPSTLSASVGDRVTITCRASQSISSWLAWYQQKPGKAPKLLIYKASSLESGVPSRFSGSGSGTDFTLTISSLRPEDFATYYCQQYNSYPLTFGGGTKVEIKR .
0.000228 s⁻¹

Now take the following binder into account.
Which koff reading was recorded for the binder H4H2797P (antibody, human IgG4, V domains shown, human IgG4 Fc (prefix H4H)) VH: QVQLVESGGGVVLPGRSLRLSCAASGFTFSSYLMYWVRQAPGKGLEWVAVIWYDGSNKFYGDSVKGRFTISRDNSKNTLYLQMNSLRAEDTAVYYCARDNGNSGYEDSWNAFDIWGQGTMVTVSS VL: DIQMTQSPSSLSASVGDRVTITCRASQDIYNYLAWFQQKPGKAPKSLIYAASSLQTGVPSQFSGSGSGTDFTLTISSLQPEDFATYYCQQYNNYPFTFGPGTKVDIK ?
0.00205 s⁻¹
